- measuredOn: PRKD2 (human) (UniProt Q9BZL6)
- Sequence (Q9BZL6 whole entry, looked up): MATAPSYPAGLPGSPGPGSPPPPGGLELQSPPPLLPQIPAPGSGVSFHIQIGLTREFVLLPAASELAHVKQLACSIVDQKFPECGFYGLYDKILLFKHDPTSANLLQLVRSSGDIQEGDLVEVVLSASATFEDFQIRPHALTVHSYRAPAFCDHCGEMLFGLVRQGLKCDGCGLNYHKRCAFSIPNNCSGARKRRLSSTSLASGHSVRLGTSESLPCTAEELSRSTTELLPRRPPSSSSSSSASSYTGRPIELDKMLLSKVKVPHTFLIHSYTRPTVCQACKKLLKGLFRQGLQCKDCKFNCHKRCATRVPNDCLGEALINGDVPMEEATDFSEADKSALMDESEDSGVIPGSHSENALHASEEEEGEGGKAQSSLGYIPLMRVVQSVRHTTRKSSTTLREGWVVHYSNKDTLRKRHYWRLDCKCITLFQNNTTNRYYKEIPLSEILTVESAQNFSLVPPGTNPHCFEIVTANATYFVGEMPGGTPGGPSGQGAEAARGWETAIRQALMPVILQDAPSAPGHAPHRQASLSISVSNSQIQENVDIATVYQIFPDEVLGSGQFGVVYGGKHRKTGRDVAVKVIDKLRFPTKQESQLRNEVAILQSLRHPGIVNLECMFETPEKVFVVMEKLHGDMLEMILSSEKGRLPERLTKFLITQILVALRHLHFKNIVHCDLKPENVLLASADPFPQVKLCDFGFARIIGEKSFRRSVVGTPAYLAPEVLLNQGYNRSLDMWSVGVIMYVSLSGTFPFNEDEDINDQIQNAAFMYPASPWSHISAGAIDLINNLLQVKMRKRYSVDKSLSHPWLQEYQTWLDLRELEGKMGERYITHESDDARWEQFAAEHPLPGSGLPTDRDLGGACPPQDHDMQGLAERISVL
- assayDetails: radiometric filter-binding kinase assay, Kinase HotSpot
- cond: compound 0.5 µM; ATP 10 µM
measuredParameter: residual activity (%)
Only the number, expressed in %, is required.

Request: Find residual activity (PRKD2 (human) (UniProt Q9BZL6)) for the entry Cc1cncc2cccc(S(=O)(=O)N3CCCN(C(=O)CN)C[C@H]3C)c12
Response: 96

Request: Could you share what residual activity was measured for O=C1Nc2ccc(Br)cc2/C1=C\c1cc2c([nH]1)CCCC2 , tested on PRKD2 (human) (UniProt Q9BZL6)?
Response: 95.8

Request: Observed residual activity on PRKD2 (human) (UniProt Q9BZL6) for NC(=O)c1cccc(-c2cc(Nc3ccc(OC(F)(F)F)cc3)ncn2)c1 , please.
Response: 102

Request: Could you share what residual activity was measured for Ic1cccc(CSc2nnc(-c3ccncc3)o2)c1 , tested on PRKD2 (human) (UniProt Q9BZL6)?
Response: 97.1

Request: Item: COc1cc(Nc2c(C#N)cnc3cc(OCCCN4CCN(C)CC4)c(OC)cc23)c(Cl)cc1Cl Test system: PRKD2 (human) (UniProt Q9BZL6) Read-out: residual activity Value: ?
Response: 35.5
